// provenance: patent US10526319B2

PDE1A (Homo sapiens, UniProt P54750) data, read-out pIC50
Sequence (P54750 whole entry): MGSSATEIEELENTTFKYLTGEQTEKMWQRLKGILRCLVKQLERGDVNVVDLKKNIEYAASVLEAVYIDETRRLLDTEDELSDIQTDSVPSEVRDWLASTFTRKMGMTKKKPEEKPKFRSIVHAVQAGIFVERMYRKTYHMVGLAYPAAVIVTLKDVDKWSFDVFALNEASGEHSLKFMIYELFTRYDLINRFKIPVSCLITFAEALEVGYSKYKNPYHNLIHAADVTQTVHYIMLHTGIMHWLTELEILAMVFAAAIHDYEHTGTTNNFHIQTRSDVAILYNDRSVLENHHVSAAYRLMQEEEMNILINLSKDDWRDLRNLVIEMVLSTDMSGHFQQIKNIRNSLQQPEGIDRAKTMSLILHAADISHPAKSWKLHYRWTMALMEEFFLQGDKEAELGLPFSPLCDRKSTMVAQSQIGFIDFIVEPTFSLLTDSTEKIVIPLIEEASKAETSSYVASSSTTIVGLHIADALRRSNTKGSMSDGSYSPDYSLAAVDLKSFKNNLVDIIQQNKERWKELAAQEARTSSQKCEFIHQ
Answers are plain numbers, as −log10 of the molar value.

Record excerpt, results attached:
# compound, pIC50
measured = [
    ("COc1ccc2c(N(C)C3(C)CCOC3)ncnc2c1Cl (single isomer, unassigned) [11 Stereoisomer 2]", 6.82),
    ("COc1ccc2c(N(C)C3CCOC3)ncnc2c1F (single isomer, unassigned) [2 Stereoisomer 2]", 7.00),
    ("COc1ccc2c(NC3CCOC3C)ncnc2c1F (single isomer, unassigned) [3 Stereoisomer 2]", 6.38),
    ("COc1ccc2c(NC3(C)CCOC3C)ncnc2c1Cl (single isomer, unassigned) [12 Stereoisomer 4]", 7.12),
    ("COc1ccc2c(NC3CCOC3C)ncnc2c1F (single isomer, unassigned) [3 Stereoisomer 3]", 6.28),
    ("COc1ccc2c(N(C)C3CCOC3C)ncnc2c1Cl (single isomer, unassigned) [14 Stereoisomer 4]", 6.55),
]

What the record says about COc1ccc2c(N3CC[C@@H]4OCCC43)ncnc2c1Br (single isomer, unassigned) [10 Stereoisomer 1] : pIC50 is 6.83

* * *

Values of pIC50 reported for PDE1B (Homo sapiens, UniProt Q01064) appear below.
Give bare numbers, as −log10 of the molar value.

The cases that follow already have their pIC50 on record.
# compound, pIC50
data = [
    ("COc1ccc2c(N(C)C3CCOC3)ncnc2c1F (single isomer, unassigned) [2 Stereoisomer 2]", 7.74),
    ("COc1ccc2c(NC3(C)CCOC3)ncnc2c1Cl (single isomer, unassigned) [7 stereoisomer 2]", 7.12),
    ("COc1ccc2c(N(C)C3CCOC3)ncnc2c1Cl (single isomer, unassigned) [6 stereoisomer 1]", 6.48),
    ("COc1ccc2c(N(C)C3CCOC3C)ncnc2c1Cl (single isomer, unassigned) [14 Stereoisomer 3]", 6.31),
    ("COc1ccc2c(NC3CCOC3)ncnc2c1Cl (single isomer, unassigned) [4 Stereoisomer 1]", 6.51),
    ("COc1ccc2c(NC3(C)CCOC3C)ncnc2c1F (single isomer, unassigned) [17 Stereoisomer 1]", 7.57),
]

With PDE1B (Homo sapiens, UniProt Q01064) as the test system, COc1ccc2c(N(C)C3(C)CCOC3C)ncnc2c1Cl (single isomer, unassigned) [13 Stereoisomer 3] showed pIC50 of 8.15

* * *

// IC50 collected for PDE1C (Homo sapiens, UniProt Q14123)
In your response, the unit should come after the numeric value.

# molecule, recorded-measurement
measured = [
    ("COc1ccc2c(N(C)C3(C)CCOC3)ncnc2c1Cl (single isomer, unassigned) [11 Stereoisomer 2]", "15 nM"),
    ("COc1ccc2c(N(C)C3(C)CCOC3C)ncnc2c1F (single isomer, unassigned) [19 Stereoisomer 4]", "34 nM"),
    ("COc1ccc2c(NC3CCOC3C)ncnc2c1Cl (single isomer, unassigned) [5 stereoisomer 3]", "250 nM"),
    ("COc1ccc2c(N3CC[C@@H]4OCCC43)ncnc2c1Cl (single isomer, unassigned) [9 Stereoisomer 1]", "23 nM"),
    ("COc1ccc2c(N(C)C3(C)CCOC3C)ncnc2c1Cl (single isomer, unassigned) [13 Stereoisomer 2]", "17 nM"),
]

Would you be so kind as to report IC50 for each listed record?
1. COc1ccc2c(N(C)C3(C)CCOC3C)ncnc2c1Cl (single isomer, unassigned) [13 Stereoisomer 4]
2. COc1ccc2c(N(C)C3CCOC3)ncnc2c1F (single isomer, unassigned) [2 Stereoisomer 1]
3. COc1ccc2c(N3CC[C@@H]4OCCC43)ncnc2c1F (single isomer, unassigned) [8 Stereoisomer 2]
4. COc1ccc2c(NC3CCOC3C)ncnc2c1F (single isomer, unassigned) [3 Stereoisomer 1]
5. COc1ccc2c(N(C)C3CCOC3)ncnc2c1Cl (single isomer, unassigned) [6 stereoisomer 1]

Response given:
13 nM
1300 nM
2500 nM
1800 nM
140 nM
